target: Progesterone receptor (Homo sapiens); assay: qHTS assay to identify small molecule agonists of the progesterone receptor (PR) signaling pathway (AID 1346784); conditions: PR-UAS-bla HEK293T, beta-lactamase FRET ratio, 16 h; series mostly up to 92.4 µM; also: nearly all actives have a fitted effect of over 30% in size
Inconclusive results are not listed. The source made the active and inactive calls. Calls follow the shape of the full dose curve.
MEASURED PARAMETER: outcome

INSERT INTO results (compound_string, observed) VALUES
  ('Clc1ccc(C(c2ccc(Cl)cc2)C(Cl)Cl)cc1', 'inactive'),
  ('Cc1c([N+](=O)[O-])c(C)c([N+](=O)[O-])c(C(C)(C)C)c1[N+](=O)[O-]', 'inactive'),
  ('N#CSCc1ccccc1', 'inactive');

----------
assay: qHTS assay to identify small molecule antagonists of the constitutive androstane receptor (CAR) signaling pathway - cell viability counter screen (AID 1224837); conditions: HepG2-CYP2B6-hCAR viability, CellTiter-Fluor, 23 h, co-treated with 50 nM CITCO; series mostly up to 92.4 µM; also: nearly all actives have a fitted effect of over 45% in size
Records with an inconclusive call do not appear. Active and inactive are the calls of the source. Calls follow the shape of the dose curve; as a rule, active = well fitted cell-killing curve with a large enough effect in the repeat runs; inconclusive = weak or mixed curves, or effect the other way; inactive = flat fitted curve, though single readings scatter.
Field 'call' accepts active, inactive

Worked examples, 4 compounds total:
INSERT INTO measurements (compound, class) VALUES
  ('CC(=O)[O-].CC(=O)[O-].O.O.O.[Pb+2]', 'inactive'),
  ('Clc1cc(Cl)c(-c2cc(Cl)c(Cl)cc2Cl)cc1Cl', 'inactive'),
  ('CC1=C2C[C@H]3[C@@H](CC=C4C[C@@H](O)CC[C@@]43C)[C@@H]2CC[C@]12O[C@@H]1C[C@H](C)CN[C@H]1[C@H]2C', 'inactive'),
  ('Cc1cc(C2CC2)nc(Nc2ccccc2)n1', 'inactive');

Problem: Tell me the recorded outcome of this test for CCC(C)c1cccc(C(C)CC)c1O (stereo unspecified) .
Solution: inactive

Problem: Tell me the recorded outcome of this test for [Cl-].[Cl-].[Cl-].[Yb+3] .
Solution: inactive

Problem: Tell me the recorded outcome of this test for CCOP(=S)(OCC)SC(CCl)N1C(=O)c2ccccc2C1=O (stereo unspecified) .
Solution: inactive

----------
target: Nuclear receptor ROR-gamma (Homo sapiens) (UniProt P51449); assay: qHTS assay to identify small molecule antagonists of the retinoid-related orphan receptor gamma (ROR-gamma) signaling pathway (AID 1159521; also: nearly all actives have a fitted effect of over 50% in size); details: Tet-on RORgamma CHO cells, RORE-luciferase, 16 h; series mostly up to 92.4 µM
Results filed as inconclusive are left out. The source made the active and inactive calls. Calls come from the whole dose curve; as a rule, active = well fitted inhibition curve with a large enough effect in the repeat runs; inconclusive = weak or mixed curves, or effect the other way; inactive = no such curve, though single readings can be large or run the other way.
Field 'call' accepts 1 (yes) = active, 0 (no) = inactive

Problem: Tell me the recorded outcome of this test for CCOC(=O)Cc1ccccc1 .
Solution: 0 (no)

Problem: Tell me the recorded outcome of this test for O=S1(=O)OCC2C(CO1)C1(Cl)C(Cl)=C(Cl)C2(Cl)C1(Cl)Cl (stereo not drawn) .
Solution: 1 (yes)

Problem: Tell me the recorded outcome of this test for CC(C)C(Br)C(=O)NC(N)=O (stereo not drawn) .
Solution: 0 (no)

Problem: Tell me the recorded outcome of this test for CN=C=O .
Solution: 0 (no)

Problem: Tell me the recorded outcome of this test for CCCCC/C=C\C/C=C\C/C=C\C/C=C\CCCC(=O)NCC(=O)O .
Solution: 0 (no)

----------
assay: qHTS RealTime-Glo MT Cell Viability Assay in HepG2 cells - 16 hour (AID 1224885); conditions: RealTime-Glo luminescence; series mostly up to 76.8 µM; also: nearly all actives have a fitted effect of over 50% in size
Records with an inconclusive call do not appear. The source made the active and inactive calls. Calls follow the shape of the dose curve; as a rule, active = well fitted cell-killing curve with a large enough effect in the repeat runs; inconclusive = weak or mixed curves; inactive = flat fitted curve, though single readings scatter.
Field 'call' accepts active, inactive

INSERT INTO results (compound, class) VALUES
  ('N#Cc1c2ccccc2cc2ccccc12', 'inactive'),
  ('Cc1cc2c3c(c1)C(c1ccccc1)=N[C@@H](NC(=O)c1ccncc1)C(=O)N3CC2', 'inactive'),
  ('N#Cc1sc2c(=O)c3ccccc3c(=O)c=2sc1C#N', 'active'),
  ('CCN(CC)Cc1nccn1-c1ccc([N+](=O)[O-])cc1C(=O)c1ccccc1Cl', 'inactive'),
  ('Brc1ccc(Oc2ccc(Br)cc2Br)c(Br)c1', 'inactive');

Problem: Tell me the recorded outcome of this test for O.O.O.O.O.O.O.O=S(=O)([O-])[O-].[Co+2] .
Solution: inactive

Problem: Tell me the recorded outcome of this test for C=CCOC(=O)c1ccccc1N .
Solution: inactive

Problem: Tell me the recorded outcome of this test for [O-][Cl+3]([O-])([O-])O .
Solution: inactive

Problem: Tell me the recorded outcome of this test for CCN1CCC2(CC1)COc1cc3c(cc12)N(C(=O)c1ccc(-c2ccc(-c4nnc(C)o4)cc2C)cc1)CC3 .
Solution: active

Problem: Tell me the recorded outcome of this test for ClC1(Cl)C2(Cl)C3(Cl)C4(Cl)C(Cl)(Cl)C5(Cl)C3(Cl)C1(Cl)C5(Cl)C24Cl (stereo not given) .
Solution: inactive

Problem: Tell me the recorded outcome of this test for CCCCC(CC)COC(=O)c1ccccc1C(=O)OCC(CC)CCCC (stereo not given) .
Solution: inactive

Problem: Tell me the recorded outcome of this test for OCC(Br)CBr (stereo not given) .
Solution: inactive

Problem: Tell me the recorded outcome of this test for Cc1nn(-c2cc(NS(C)(=O)=O)c(Cl)cc2Cl)c(=O)n1C(F)F .
Solution: inactive

Problem: Tell me the recorded outcome of this test for CC(Cc1ccc(O)cc1)NCC(O)c1cc(O)cc(O)c1 (stereo not given) .
Solution: inactive

Problem: Tell me the recorded outcome of this test for BrCCCBr .
Solution: inactive

Problem: Tell me the recorded outcome of this test for CC1CCCC1 .
Solution: inactive

Problem: Tell me the recorded outcome of this test for [O]=[Cr][O][Cr]=[O] .
Solution: inactive

Problem: Tell me the recorded outcome of this test for CCNc1nc(NC(C)C(C)C)nc(SC)n1 (stereo not given) .
Solution: inactive

Problem: Tell me the recorded outcome of this test for CCC(C)c1cccc(C(C)CC)c1O (stereo not given) .
Solution: inactive

Problem: Tell me the recorded outcome of this test for Nc1nc(N)c(N)c(N)n1 .
Solution: inactive
